- Target of assay: His-PKC-theta (Homo sapiens)
- Construct: His; purchased Invitrogen
- Sequence (Q04759 whole entry): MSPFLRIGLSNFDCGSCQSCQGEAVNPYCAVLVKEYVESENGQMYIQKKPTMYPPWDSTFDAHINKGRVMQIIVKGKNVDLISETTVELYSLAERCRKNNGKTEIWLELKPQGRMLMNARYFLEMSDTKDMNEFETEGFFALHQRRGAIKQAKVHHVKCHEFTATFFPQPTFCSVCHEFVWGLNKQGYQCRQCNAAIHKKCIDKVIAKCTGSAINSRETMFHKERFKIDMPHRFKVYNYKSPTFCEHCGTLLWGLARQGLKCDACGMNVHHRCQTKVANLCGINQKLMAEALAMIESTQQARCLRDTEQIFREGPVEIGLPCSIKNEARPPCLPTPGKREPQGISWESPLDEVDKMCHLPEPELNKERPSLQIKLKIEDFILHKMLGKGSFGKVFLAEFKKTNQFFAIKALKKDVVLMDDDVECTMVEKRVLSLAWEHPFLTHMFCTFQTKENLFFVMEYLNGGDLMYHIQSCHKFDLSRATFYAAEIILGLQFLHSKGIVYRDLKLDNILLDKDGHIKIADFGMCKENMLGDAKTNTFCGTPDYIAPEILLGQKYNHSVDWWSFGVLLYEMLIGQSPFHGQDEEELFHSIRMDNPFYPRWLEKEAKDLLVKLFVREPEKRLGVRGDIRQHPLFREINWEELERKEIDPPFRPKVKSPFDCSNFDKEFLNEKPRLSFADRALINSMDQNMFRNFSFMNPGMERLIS
- Test summary: PKC-theta Assay (384-well time resolved fluorescence, IMAP TR-FRET)
- Assay type: biochemical
- Test settings: read-out: Act. Level (IC50 in the PKC-theta Assay)
pIC50: −log10 of the molar value.
Recorded pIC50 for the following compounds

IN: Report pIC50 for CC1(C)C[C@H](Nc2nc(NCC[C@@]3(C)C(=O)Nc4ccccc43)ncc2C#N)CC[C@@H]1O
OUT: 6.10 to 7.00

IN: Return value of pIC50 for input CN(C)C(=O)[C@H]1C[C@@H](Nc2nc(NCCc3c[nH]c4ccccc34)ncc2C#N)C1 , no commentary.
OUT: 6.10 to 7.00

IN: Indicate the recorded pIC50 value for this compound: CC1(C)[C@@H](O)CCC[C@H]1Nc1nc(NCCC2C(=O)Nc3cc(F)ccc32)ncc1C#N (stereo partly shown)
OUT: 6.10 to 7.00

IN: Read off the recorded pIC50 for CC1(C)C[C@H](Nc2nc(NCCc3c[nH]c4ccc(OC(F)(F)F)cc34)ncc2C#N)CC[C@@H]1O
OUT: 5.00 to 5.70

IN: For the compound Cc1cccc(Oc2ncncc2CNc2ncc(C#N)c(N[C@H]3CC[C@@H](O)CC3)n2)c1 , give its reported pIC50.
OUT: > 7.00

IN: # return recorded pIC50 for entry CC(C)c1ncncc1CNc1ncc(C#N)c(N[C@@H]2C[C@H](CO)C2(C)C)n1
OUT: > 7.00

IN: Quote pIC50 reported for O[C@H]1CC[C@@H](Nc2nc(NCc3cncnc3-c3ccccc3)ncc2C(F)(F)F)CC1 please.
OUT: > 7.00

IN: # return recorded pIC50 for entry CC1(C)[C@@H](O)C[C@H]1Nc1nc(NCCc2ccn[nH]2)ncc1C#N
OUT: 5.70 to 6.10

Others:
IN: Tell me pIC50 reported for CC1(C)[C@@H](Nc2nc(NCc3cnccc3C(F)(F)F)ncc2C(F)(F)F)C[C@@H]1O
OUT: 5.70 to 6.10
